Where do the numbers come from? From the supplement of paper PMC3545927.

Tgt: furin, P09958
Sequence (P09958 whole entry): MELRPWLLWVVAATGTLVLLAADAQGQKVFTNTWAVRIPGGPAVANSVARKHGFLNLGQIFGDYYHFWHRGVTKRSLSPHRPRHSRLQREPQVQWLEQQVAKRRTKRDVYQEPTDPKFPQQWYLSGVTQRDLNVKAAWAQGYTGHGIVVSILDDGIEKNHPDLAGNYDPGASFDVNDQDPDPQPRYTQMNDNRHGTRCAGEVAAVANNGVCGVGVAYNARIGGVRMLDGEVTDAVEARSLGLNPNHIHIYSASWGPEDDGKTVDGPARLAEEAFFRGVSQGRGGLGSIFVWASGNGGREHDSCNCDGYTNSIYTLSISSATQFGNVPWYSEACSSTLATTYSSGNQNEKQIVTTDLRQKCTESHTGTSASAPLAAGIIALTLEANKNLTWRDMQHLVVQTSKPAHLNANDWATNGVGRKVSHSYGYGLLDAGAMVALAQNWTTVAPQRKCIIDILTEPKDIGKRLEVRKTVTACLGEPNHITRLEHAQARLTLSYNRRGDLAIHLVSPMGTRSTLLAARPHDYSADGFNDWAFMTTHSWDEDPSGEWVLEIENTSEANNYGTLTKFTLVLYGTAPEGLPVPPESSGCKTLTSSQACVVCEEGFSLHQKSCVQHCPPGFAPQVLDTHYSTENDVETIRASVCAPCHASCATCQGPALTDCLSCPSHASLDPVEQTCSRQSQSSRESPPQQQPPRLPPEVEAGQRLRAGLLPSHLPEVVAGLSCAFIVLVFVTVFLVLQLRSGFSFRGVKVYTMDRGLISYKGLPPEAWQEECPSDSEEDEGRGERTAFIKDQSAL
Experiment notes: furin cleavage Z-score vs untreated control; higher = more cleavage, active = 3.5 or more, inactive = 1 or less, 8 variable residues between constant flanks;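 also: purified furin at 1:10 enzyme:substrate in 50 mM HEPES pH 7.5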
Measurement setup: 30 min
The list shows a part of the results. The hit rate among all sequences tested is not known here.
Parameter measured: furin cleavage Z-score
Write the number on its own, no unit after it.

# example entries with known answers
Sequence string | Parameter measured | Number
CAFVSLLAPGAGNASASA [HC360] | furin cleavage Z-score | -1.08
CAAESRACRGAGNASASA [FS-742] | furin cleavage Z-score | -0.66
CALNGRCRRTAGNASASA [FS-134] | furin cleavage Z-score | 8.18

Prompt: Need furin cleavage Z-score of CAHARKAVTHAGNASASA [HC1426] , thanks.
Response: 0.178

Prompt: Next record, please: CAAERRRRRGAGNASASA [FS-2]
Response: 2.64

Prompt: Next record, please: CAAERRHYRPAGNASASA [FS-969]
Response: 0.0544
